# Test summary: Cell-free aggregation assay
# Assay type: physicochemical
# Assay setup: critical aggregation concentration; 1× HBSS, 20 mM HEPES, pH 7.2
Measure name: Detected CAC (µM)

[[record]]
compound = "O=c1c(-c2ccc(O)cc2)coc2cc(O)cc(O)c12"
units_label = "µM"
value_observed = 42.8

[[record]]
compound = "O=c1c(O)c(-c2ccc(O)c(O)c2)oc2cc(O)cc(O)c12"
units_label = "µM"
value_observed = 5.7

[[record]]
compound = "O=c1cc(-c2ccc(O)c(O)c2)oc2cc(O)cc(O)c12"
units_label = "µM"
value_observed = 1.6

[[record]]
compound = "COc1cc(C2Oc3cc([C@H]4Oc5cc(O)cc(O)c5C(=O)[C@@H]4O)ccc3OC2CO)ccc1O (stereo partly drawn)"
units_label = "µM"
value_observed = 25.2

[[record]]
compound = "COc1cc(/C=C/C(=O)CC(=O)/C=C/c2ccc(O)c(OC)c2)ccc1O"
units_label = "µM"
value_observed = 9.6

